system_name: F508delCFTR (Homo sapiens, UniProt P13569, DEL508-508)
Construct: expressed in transfected cells; host or cells: CFBE41o- human lung-derived epithelial cells (CFBE4lo-F508delCFTR-HRP), doxycycline-inducible
Sequence (P13569 with tags, fused parts or gaps DEL508-508): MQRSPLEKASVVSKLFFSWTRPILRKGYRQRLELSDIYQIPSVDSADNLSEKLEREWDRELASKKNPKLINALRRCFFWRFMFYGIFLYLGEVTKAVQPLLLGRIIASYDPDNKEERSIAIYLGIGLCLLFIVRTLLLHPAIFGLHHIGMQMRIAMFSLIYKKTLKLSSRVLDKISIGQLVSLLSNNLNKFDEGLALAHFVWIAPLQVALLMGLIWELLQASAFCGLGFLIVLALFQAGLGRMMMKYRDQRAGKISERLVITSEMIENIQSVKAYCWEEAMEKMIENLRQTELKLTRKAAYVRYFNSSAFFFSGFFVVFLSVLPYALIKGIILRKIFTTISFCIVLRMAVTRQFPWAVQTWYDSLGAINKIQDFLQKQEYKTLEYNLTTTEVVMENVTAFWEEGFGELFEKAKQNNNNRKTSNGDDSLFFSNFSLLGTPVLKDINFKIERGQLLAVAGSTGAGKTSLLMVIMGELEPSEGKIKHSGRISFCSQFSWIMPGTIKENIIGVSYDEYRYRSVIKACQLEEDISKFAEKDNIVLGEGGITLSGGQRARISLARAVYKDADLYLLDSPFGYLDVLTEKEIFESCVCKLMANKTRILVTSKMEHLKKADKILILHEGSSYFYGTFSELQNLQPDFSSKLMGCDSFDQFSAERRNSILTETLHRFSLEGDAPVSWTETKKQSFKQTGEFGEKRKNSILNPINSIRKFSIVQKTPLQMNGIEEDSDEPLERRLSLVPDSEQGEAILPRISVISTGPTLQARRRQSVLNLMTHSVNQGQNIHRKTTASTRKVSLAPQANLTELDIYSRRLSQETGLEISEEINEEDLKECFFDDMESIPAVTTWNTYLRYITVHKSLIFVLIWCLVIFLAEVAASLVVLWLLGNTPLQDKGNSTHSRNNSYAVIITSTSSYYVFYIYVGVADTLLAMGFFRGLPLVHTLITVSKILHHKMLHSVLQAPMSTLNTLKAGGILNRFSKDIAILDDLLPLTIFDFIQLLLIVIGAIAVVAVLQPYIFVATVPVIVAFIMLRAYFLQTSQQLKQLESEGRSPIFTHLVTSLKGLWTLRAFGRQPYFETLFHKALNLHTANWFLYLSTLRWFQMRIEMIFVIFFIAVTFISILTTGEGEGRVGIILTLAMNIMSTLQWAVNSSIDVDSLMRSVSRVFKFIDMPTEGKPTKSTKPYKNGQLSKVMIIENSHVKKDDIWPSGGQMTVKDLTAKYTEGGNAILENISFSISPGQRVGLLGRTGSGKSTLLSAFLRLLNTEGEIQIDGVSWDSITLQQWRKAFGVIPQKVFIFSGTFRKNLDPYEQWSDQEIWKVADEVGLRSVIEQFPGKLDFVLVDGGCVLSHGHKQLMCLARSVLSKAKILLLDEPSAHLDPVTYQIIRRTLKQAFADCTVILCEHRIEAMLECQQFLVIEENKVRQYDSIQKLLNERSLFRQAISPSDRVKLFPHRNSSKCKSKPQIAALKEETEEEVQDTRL
protocol_description: Cell Surface Expression-Horse Radish Peroxidase (CSE-HRP) Assay
Assay type: cell-based
measurement_parameters: test compound without co-corrector; read-out: EC50 (without co-corrector)
Here the recorded EC50 is given for each entry.

Hey, F508delCFTR (Homo sapiens, UniProt P13569, DEL508-508) data for COc1nc(C(C)(C)C)ccc1CN[C@H]1[C@H](C(C)(C)C)[C@@H](C(=O)O)N(C(=O)OC(C)C)[C@H]1c1ccccc1F [II-519] : EC50 came out at 1 to 10 µM

Field EC50 (system: F508delCFTR (Homo sapiens, UniProt P13569, DEL508-508)) for entry COc1ccc(C(C)(C)C)cc1CN[C@H]1[C@H](C(C)(C)C)[C@@H](C(=O)O)N(C(=O)[C@@H]2CCC[C@@H](OC(F)(F)F)C2)[C@H]1c1cccnc1OC [II-540] = 1 to 10 µM

EC50 on F508delCFTR (Homo sapiens, UniProt P13569, DEL508-508) for COc1ccc(C(C)(C)C)cc1CN[C@H]1[C@H](C(C)(C)C)[C@@H](C(=O)O)N(C(=O)[C@]2(C)CCc3c(OC)cccc32)[C@H]1c1ccccc1 [II-366] is 1 to 10 µM

# lookup: COc1ncc(C(F)(F)F)cc1CN[C@H]1[C@H](C(C)(C)C)[C@@H](C(=O)O)N(C(=O)OC(C)C)[C@H]1c1cccnc1N(C)C [II-510] on F508delCFTR (Homo sapiens, UniProt P13569, DEL508-508), EC50 = 1 to 10 µM

The recorded EC50 with F508delCFTR (Homo sapiens, UniProt P13569, DEL508-508) for COc1ncc(-c2cccnc2)cc1CN[C@H]1[C@H](C(C)(C)C)[C@@H](C(=O)O)N(C(=O)C2CCCCC2)[C@H]1c1ccccc1 [II-345] was 1 to 10 µM

The compound C=CCCOC(=O)N1[C@H](C(=O)O)[C@@H](C(C)(C)C)[C@H](NCc2cc(C(C)(C)C)ccc2OC)[C@@H]1c1ccccc1 [II-387] on F508delCFTR (Homo sapiens, UniProt P13569, DEL508-508): EC50 was 1 to 10 µM

Query COc1ncc(C2CCC2)cc1CN[C@H]1[C@H](C(C)(C)C)[C@@H](C(=O)O)N(C(=O)[C@@H]2CCCO2)[C@H]1c1ccccc1C(F)F [II-597] on F508delCFTR (Homo sapiens, UniProt P13569, DEL508-508); EC50 returned: 1 to 10 µM
